Assay: Cytotoxicity against human SMMC7721 cells by MTT assay
Format: functional, cell-based
Conditions: SMMC-7721
pIC50: −log10 of the molar value.
Reported property: pIC50

stdin: Find the recorded pIC50 belonging to Cc1cc2c(cc1C)[n+](CC(=O)c1ccccc1)cn2CC(=O)N1CCC2(C)c3ccccc3N(C)C12 (stereo not drawn) and report it.
stdout: < 4.70

stdin: Could you do the same for Cc1nccn1CC(=O)N1CCC2(C)c3ccccc3N(C)C12 (stereo not drawn) , please?
stdout: < 4.70

Shifting focus to the compound that follows.
stdin: Find the recorded pIC50 belonging to CN1c2ccccc2C2(C)CCN(C(=O)Cn3cc[n+](CC(=O)c4ccc(Br)cc4)c3)C12 (stereo not drawn) and report it.
stdout: < 4.70

* * *

Test system: MCF7
Test: Cytotoxicity against human MCF7 cells by MTT assay
Assay type: functional, cell-based
For each record, write down the corresponding IC50.

stdin: I'm curious: which IC50 was measured for Cc1cc2ncn(CC(=O)N3CCC4(C)c5ccccc5N(C)C34)c2cc1C (stereo not drawn) tested on MCF7?
stdout: > 20 µM

For each of the items listed, what is its IC50?
1. Cc1n(CC(=O)N2CCC3(C)c4ccccc4N(C)C23)cc[n+]1CC(=O)c1ccc2ccccc2c1 (stereo not drawn)
2. Cc1cc2ncn(CC(=O)N3CCC4(C)c5ccccc5N(Cc5ccccc5)C34)c2cc1C (stereo not drawn)

stdout:
["> 20 µM", "> 20 µM"]

* * *

Test: Cytotoxicity against human SMMC7721 cells by MTT assay
Assay type: functional, cell-based
Settings: SMMC-7721
For each record, write down the corresponding IC50.
Give bare numbers, in µM.

For each of the items listed, what is its IC50?
1. Cc1n(CC(=O)N2CCC3(C)c4ccccc4N(C)C23)c2ccccc2[n+]1CC(=O)c1ccc2ccccc2c1 (stereo not given)
2. Cc1n(CC(=O)N2CCC3(C)c4ccccc4N(Cc4ccccc4)C23)c2ccccc2[n+]1CC(=O)c1ccccc1 (stereo not given)

stdout:
7.09
9.28

* * *

Test system: SW480
Assay: Cytotoxicity against human SW480 cells by MTT assay
Format: functional, cell-based
Reported property: IC50

// below: answered compounds
stdin: Find the recorded IC50 belonging to Cc1n(CC(=O)N2CCC3(C)c4ccccc4N(Cc4ccccc4)C23)cc[n+]1CC(=O)c1ccc(Br)cc1 (configuration not stated) and report it.
stdout: > 20 µM

stdin: Could you do the same for Cc1n(CC(=O)N2CCC3(C)c4ccccc4N(C)C23)cc[n+]1CC(=O)c1ccc2ccccc2c1 (configuration not stated) , please?
stdout: > 20 µM

stdin: Could you do the same for CN1c2ccccc2C2(C)CCN(C(=O)Cn3c[n+](CC(=O)c4ccccc4)c4ccccc43)C12 (configuration not stated) , please?
stdout: > 20 µM

For each of the items listed, what is its IC50?
1. Cc1n(CC(=O)N2CCC3(C)c4ccccc4N(C)C23)cc[n+]1CC(=O)c1ccccc1 (configuration not stated)
2. Cc1n(CC(=O)N2CCC3(C)c4ccccc4N(C)C23)c2ccccc2[n+]1CC(=O)c1ccc(Br)cc1 (configuration not stated)
3. CC12CCN(C(=O)Cn3cnc4ccccc43)C1N(Cc1ccccc1)c1ccccc12 (configuration not stated)
4. Cc1ccc(C[n+]2c(C)n(CC(=O)N3CCC4(C)c5ccccc5N(C)C34)c3ccccc32)cc1 (configuration not stated)
5. Cc1n(CC(=O)N2CCC3(C)c4ccccc4N(C)C23)c2ccccc2[n+]1Cc1ccccc1Br (configuration not stated)

stdout:
1. > 20 µM
2. > 20 µM
3. > 20 µM
4. > 20 µM
5. > 20 µM

For each of the items listed, what is its IC50?
1. CC12CCNC1N(Cc1ccccc1)c1ccccc12 (configuration not stated)
2. Cc1n(CC(=O)N2CCC3(C)c4ccccc4N(Cc4ccccc4)C23)c2ccccc2[n+]1Cc1ccc(Br)cc1 (configuration not stated)
3. Cc1nccn1CC(=O)N1CCC2(C)c3ccccc3N(C)C12 (configuration not stated)
4. Cc1cc2c(cc1C)[n+](Cc1ccc(Br)cc1)cn2CC(=O)N1CCC2(C)c3ccccc3N(Cc3ccccc3)C12 (configuration not stated)
5. COc1ccc(C(=O)C[n+]2c(C)n(CC(=O)N3CCC4(C)c5ccccc5N(Cc5ccccc5)C34)c3ccccc32)cc1 (configuration not stated)

stdout:
["> 20 µM", "6.11 µM", "> 20 µM", "1.41 µM", "8.38 µM"]

For each of the items listed, what is its IC50?
1. Cc1cc2ncn(CC(=O)N3CCC4(C)c5ccccc5N(Cc5ccccc5)C34)c2cc1C (configuration not stated)
2. CN1c2ccccc2C2(C)CCN(C(=O)Cn3cc[n+](CC(=O)c4ccc5ccccc5c4)c3)C12 (configuration not stated)
3. CN1c2ccccc2C2(C)CCN(C(=O)Cn3cnc4ccccc43)C12 (configuration not stated)
4. Cc1ccc(C[n+]2cn(CC(=O)N3CCC4(C)c5ccccc5N(Cc5ccccc5)C34)c3cc(C)c(C)cc32)cc1 (configuration not stated)
5. Cc1cc2ncn(CC(=O)N3CCC4(C)c5ccccc5N(C)C34)c2cc1C (configuration not stated)
6. COc1ccc(C(=O)C[n+]2cn(CC(=O)N3CCC4(C)c5ccccc5N(C)C34)c3cc(C)c(C)cc32)cc1 (configuration not stated)
7. Cc1n(CC(=O)N2CCC3(C)c4ccccc4N(C)C23)cc[n+]1Cc1ccc(Br)cc1 (configuration not stated)
8. CN1c2ccccc2C2(C)CCN(C(=O)Cn3c[n+](CC(=O)c4ccc(Br)cc4)c4ccccc43)C12 (configuration not stated)

stdout:
1. > 20 µM
2. > 20 µM
3. > 20 µM
4. 1.77 µM
5. > 20 µM
6. 11.1 µM
7. > 20 µM
8. > 20 µM

For each of the items listed, what is its IC50?
1. Cc1nc2ccccc2n1CC(=O)N1CCC2(C)c3ccccc3N(C)C12 (configuration not stated)
2. CN1c2ccccc2C2(C)CCN(C(=O)Cn3c[n+](CC(=O)c4ccc5ccccc5c4)c4ccccc43)C12 (configuration not stated)
3. Cc1cc2c(cc1C)[n+](CC(=O)c1ccc(Br)cc1)cn2CC(=O)N1CCC2(C)c3ccccc3N(C)C12 (configuration not stated)
4. CN1c2ccccc2C2(C)CCN(C(=O)Cn3c[n+](Cc4ccccc4Br)c4ccccc43)C12 (configuration not stated)

stdout:
> 20 µM
8.56 µM
8.52 µM
> 20 µM

For each of the items listed, what is its IC50?
1. CN1c2ccccc2C2(C)CCN(C(=O)Cn3cc[n+](CC(=O)c4ccccc4)c3)C12 (configuration not stated)
2. Cc1cc2c(cc1C)[n+](CC(=O)c1ccc3ccccc3c1)cn2CC(=O)N1CCC2(C)c3ccccc3N(C)C12 (configuration not stated)

stdout:
> 20 µM
5.01 µM
